Quick reference: Concentration at maximum Nrf2 activation fold change (@ [uM]) of the listed items.
Tested on: Nrf2 (ARE-luciferase reporter) in MCF7/ARE-D3 cells
TEST_NAME: Nrf2 activation cell-based assay, ARE-luciferase reporter, MCF7/ARE-D3 cell line
Parameters: species or system Human
CONDITION_DESCRIPTION: 24 hr stimulation
Structures can show the parent of a compound that is named as a salt.
Enter your answer as a number in µM; do not include the unit.

Examples with their reported Concentration at maximum Nrf2 activation fold change (@ [uM]) follow.
COMPOUND: COC(=O)/C=C/C(=O)O[Si](C)(C)OC(=O)/C=C/C(=O)OC [Compound 11]
RESULT_UNIT: µM
QUANTITATIVE_READOUT: 750

COMPOUND: COC(=O)/C=C/C(=O)O [MMF, monomethyl fumarate, reference compound]
RESULT_UNIT: µM
QUANTITATIVE_READOUT: 1000

COMPOUND: COC(=O)/C=C/C(=O)OC[Si](OC)(OC)OC [Compound 12]
RESULT_UNIT: µM
QUANTITATIVE_READOUT: 500

[in] Hello, I am looking for reported Concentration at maximum Nrf2 activation fold change (@ [uM]) with Nrf2 (ARE-luciferase reporter) in MCF7/ARE-D3 cells for COC(=O)/C=C/C(=O)OC [DMF, dimethyl fumarate, reference compound] . Could you help?
[out] 94
